Entry source: patent US20180258175A1

Tested target: T1, human CD115 extracellular domain (Sino Biological 10161-H08H) (human, UniProt P07333 20-517)
T1 construct: extracellular domain; bought recombinant protein; also called huCD115; hu-CD115
Experiment: competition ELISA, competitor TMR 24A;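 further: clonal anti-huCD115 hybridoma supernatant antibodies bound with a competitor mouse antibody present, and failure to bind puts a clone in that competitor's epitope bin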;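 further: low signal means same epitope bin as the mouse competitor antibody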
Give signal vs NO COMP=100 for every item shown.
Form entry: value (%) — number only.

## Input # query: signal vs NO COMP=100 of entry CCK-525A (antibody, V domains shown, AlivaMab chimeric IgG, human kappa LC) VH: QVQLVESGGGVVQPGRSLRLSCAASGFTFSSYGMHWVRQAPGKGLEWVAVIWYDGSIKYYADSVKGRFTISRDNSKNTLYLQMNSLRAEDTAVYYCARATYYYDSSGYYSNWFDPWGQGTLVTVSS VL: DIQMTQSPSSVSASVGDRVTITCRASQGISSWLAWYQQKPGKAPKLLIYAASSLQSGVPSRFSGSGSGTDFTLTISSLQPEDFATYYCQQANTFPFTVGPGTKVDIK
## Output 13

## Input What does the data say about its signal vs NO COMP=100? Entry: CCK-465A (antibody, V domains shown, AlivaMab chimeric IgG, human kappa LC) VH: QVQLQESGPGLVKPSETLSLSCTVSGGSISSYYWSWIRQPAGKGLEWIGRIYTSGSTNYNPSLKSRVTMSVDTSKNQFSLKLSSVTAADTAVYYCARDRSFYGMDVWGQGTTVTVSS VL: DIQMTQSPSSLSASVGDRVTITCRASQGFSNYLAWYQQKPGKVPKLLIYAASTLQSGVPSRFSGSGSGTDFTLTISSLQPEDVATYYCQKYNSAPLTFGGGTKVEIK
## Output 81
